Reference source for all entries: patent US7825129B2

Quick record of pIC50 values for poly(ADP-ribose) polymerase (PARP) (Bos taurus, UniProt P18493).
pIC50: −log10 of the molar value.
measurement-kind: pIC50

P: NC(=O)c1ccccc1 [Benzamide, reference compound]
Q: O=c1[nH]c2sccc2c2c(O)cccc12
Prompt: Which numeric pIC50 is bigger, that of P or that of Q ? API: response body contains the label of the selected item.
Response: Q
(Q: 7.00, P: 4.05)
